Source: patent US8299035B2

List of MIC values (minimum inhibitory concentration) values.
# System: S. pneumoniae ATCC 49619
# EXPERIMENT: In vitro antibacterial activity, microbroth dilution method (CLSI method)
# Assay type: cell-based
# CONDITION INFO: bacteria symbol C = S. pneumoniae ATCC 49619
Give your result in µg/mL as a bare value.

CO[C@]1(C)C[C@H](O[C@H]2[C@H](C)[C@@H](O[C@@H]3O[C@H](C)C[C@H](N(C)C)[C@H]3O)[C@@](C)(OC)C[C@@H](C)[C@H](O)[C@H](C)N3CC(C3)OC(=O)[C@@H]2C)O[C@@H](C)[C@@H]1O (mixture of isomers)	0.12
COC1(C)CC(C)C(O)C(C)N2CC(C2)OC(=O)C(C)C(OC2CC(C)(OC)C(O)(CN(C)CCN(C)C(C)c3ccccc3-c3ccccn3)C(C)O2)C(C)C1OC1OC(C)CC(N(C)C)C1O (stereo not shown)	0.03
CCN(CCNC(=O)O[C@H]1[C@H](C)O[C@@H](O[C@H]2[C@H](C)[C@@H](O[C@@H]3O[C@H](C)C[C@H](N(C)C)[C@H]3O)[C@@](C)(OC)C[C@@H](C)[C@H](O)[C@H](C)N3CC(C3)OC(=O)[C@@H]2C)C[C@@]1(C)OC)[C@@H](C)c1ccccc1OC	0.06

Next:
# return MIC values (minimum inhibitory concentration) of COc1cccc2c1CN(CCN(C)CC1(O)C(C)OC(OC3C(C)C(=O)OC4CN(C4)C(C)C(O)C(C)CC(C)(OC)C(OC4OC(C)CC(N(C)C)C4O)C3C)CC1(C)OC)CC2 (stereo not shown) (system: S. pneumoniae ATCC 49619)
0.06

###

List of MIC values (minimum inhibitory concentration) values.
# Tested on: S. pneumoniae ATCC 49619
# EXPERIMENT: In vitro antibacterial activity, microbroth dilution method (CLSI method)
# Type: cell-based
# CONDITION INFO: bacteria symbol C = S. pneumoniae ATCC 49619
Give your result in µg/mL as a bare value.

In the examples that follow, each entry is paired with its recorded MIC values (minimum inhibitory concentration).
CCN(CCNC(=O)O[C@H]1[C@H](C)O[C@@H](O[C@H]2[C@H](C)[C@@H](O[C@@H]3O[C@H](C)C[C@H](N(C)C)[C@H]3O)[C@@](C)(O)C[C@@H](C)[C@H](O)[C@H](C)N3CC(C3)OC(=O)[C@@H]2C)C[C@@]1(C)OC)[C@@H](C)c1ccccc1OC [Example 12]	0.03
CCN(CC(CO)NCC1(O)C(C)OC(OC2C(C)C(=O)OC3CN(C3)C(C)C(O)C(C)CC(C)(OC)C(OC3OC(C)CC(N(C)C)C3O)C2C)CC1(C)OC)C(C)c1ccccc1OC (centres unmarked) [Example 107]	0.03
CCN(CC(C)NCC1(O)C(C)OC(OC2C(C)C(=O)OC3CN(C3)C(C)C(O)C(C)CC(C)(OC)C(OC3OC(C)CC(N(C)C)C3O)C2C)CC1(C)OC)C(C)(C)c1ccccc1OC (centres unmarked) [Example 84]	0.016
COc1ccccc1C(C)(C)N(C)Cc1cncn1CC1(O)C(C)OC(OC2C(C)C(=O)OC3CN(C3)C(C)C(O)C(C)CC(C)(OC)C(OC3OC(C)CC(N(C)C)C3O)C2C)CC1(C)OC (centres unmarked) [Example 204]	0.03

Next:
Indicate the recorded MIC values (minimum inhibitory concentration) value for this compound: COc1cccc2c1CCCC2N(C)CCN(C)CC1(O)C(C)OC(OC2C(C)C(=O)OC3CN(C3)C(C)C(O)C(C)CC(C)(OC)C(OC3OC(C)CC(N(C)C)C3O)C2C)CC1(C)OC (centres unmarked) [Example 133]
0.12

###

# Test system: H. influenzae Rd
# EXPERIMENT: In vitro antibacterial activity, microbroth dilution method (CLSI method)
# Type: cell-based
# CONDITION INFO: bacteria symbol B = H. influenzae Rd
List of MIC values (minimum inhibitory concentration) values.
Give your result in µg/mL as a bare value.

In the examples that follow, each entry is paired with its recorded MIC values (minimum inhibitory concentration).
CO[C@]1(C)C[C@H](O[C@H]2[C@H](C)[C@@H](O[C@@H]3O[C@H](C)C[C@H](N(C)C)[C@H]3O)[C@@](C)(OC)C[C@@H](C)[C@H](O)[C@H](C)N3CC(C3)OC(=O)[C@@H]2C)O[C@@H](C)[C@@H]1O (mixture of isomers)	1
COC1(C)CC(C)C(O)C(C)N2CC(C2)OC(=O)C(C)C(OC2CC(C)(OC)C(O)(CNCCNC(C)(C)c3cccc4c3ccn4C)C(C)O2)C(C)C1OC1OC(C)CC(N(C)C)C1O (stereo not shown)	4
CCN(CCNC(=O)O[C@H]1[C@H](C)O[C@@H](O[C@H]2[C@H](C)[C@@H](O[C@@H]3O[C@H](C)C[C@H](N(C)C)[C@H]3O)[C@@](C)(O)C[C@@H](C)[C@H](O)[C@H](C)N3CC(C3)OC(=O)[C@@H]2C)C[C@@]1(C)OC)[C@@H](C)c1ccccc1OC	8
COC1(C)CC(C)C(O)C(C)N2CC(C2)OC(=O)C(C)C(OC2CC(C)(OC)C(O)(CN(C)CCN(C)C(C)c3ccccc3-c3ccccn3)C(C)O2)C(C)C1OC1OC(C)CC(N(C)C)C1O (stereo not shown)	8
COc1ncccc1C(C)(C)N(C)CCN(C)C[C@@]1(O)[C@H](C)O[C@@H](O[C@H]2[C@H](C)[C@@H](O[C@@H]3O[C@H](C)C[C@H](N(C)C)[C@H]3O)[C@@](C)(O)C[C@@H](C)[C@H](O)[C@H](C)N3CC(C3)OC(=O)[C@@H]2C)C[C@@]1(C)OC	8
CCN(CC(C)NCC1(O)C(C)OC(OC2C(C)C(=O)OC3CN(C3)C(C)C(O)C(C)CC(C)(OC)C(OC3OC(C)CC(N(C)C)C3O)C2C)CC1(C)OC)C(C)(C)c1ccccc1OC (stereo not shown)	4
CCN(CCNC[C@@]1(O)[C@H](C)O[C@@H](O[C@H]2[C@H](C)[C@@H](O[C@@H]3O[C@H](C)C[C@H](N(C)C)[C@H]3O)[C@@](C)(OC)C[C@@H](C)C(=O)[C@H](C)N3CC(C3)OC(=O)[C@@H]2C)C[C@@]1(C)OC)[C@@H](C)c1ccccc1OC	8
CCN(CCNC(=O)O[C@H]1[C@H](C)O[C@@H](O[C@H]2[C@H](C)[C@@H](O[C@@H]3O[C@H](C)C[C@H](N(C)C)[C@H]3O)[C@@](C)(OC)C[C@@H](C)[C@H](O)[C@H](C)N3CC(C3)OC(=O)[C@@H]2C)C[C@@]1(C)OC)[C@@H](C)c1ccccc1OC	8
COc1ccccc1C(C)(C)N(C)CCN(C)CC1(O)C(C)OC(OC2C(C)C(=O)OC3CN(C3)C(C)C(O)C(C)CC(C)(OC)C(OC3OC(C)CC(N(C)C)C3O)C2C)CC1(C)OC (stereo not shown)	2

Indicate the recorded MIC values (minimum inhibitory concentration) value for this compound: COc1cccc2c1CN(CCN(C)CC1(O)C(C)OC(OC3C(C)C(=O)OC4CN(C4)C(C)C(O)C(C)CC(C)(OC)C(OC4OC(C)CC(N(C)C)C4O)C3C)CC1(C)OC)CC2 (stereo not shown)
8

###

# Test system: H. influenzae Rd
# EXPERIMENT: In vitro antibacterial activity, microbroth dilution method (CLSI method)
# Type: cell-based
# CONDITION INFO: bacteria symbol B = H. influenzae Rd
MEASURED PARAMETER: MIC values (minimum inhibitory concentration) (µg/mL)
Give your result in µg/mL as a bare value.

In the examples that follow, each entry is paired with its recorded MIC values (minimum inhibitory concentration).
COc1ccccc1C(C)(C)N(C)CC1CN(CC2(O)C(C)OC(OC3C(C)C(=O)OC4CN(C4)C(C)C(O)C(C)CC(C)(OC)C(OC4OC(C)CC(N(C)C)C4O)C3C)CC2(C)OC)C1 (centres unmarked) [Example 162]	2
CCN(CC(CO)NCC1(O)C(C)OC(OC2C(C)C(=O)OC3CN(C3)C(C)C(O)C(C)CC(C)(OC)C(OC3OC(C)CC(N(C)C)C3O)C2C)CC1(C)OC)C(C)c1ccccc1OC (centres unmarked) [Example 107]	4
CCN(CCNC[C@@]1(O)[C@H](C)O[C@@H](O[C@H]2[C@H](C)[C@@H](O[C@@H]3O[C@H](C)C[C@H](N(C)C)[C@H]3O)[C@@](C)(OC)C[C@@H](C)[C@H](O)[C@H](C)N3CC(C3)OC(=O)[C@@H]2C)C[C@@]1(C)OC)[C@@H](C)c1ccccc1OC [Example 3]	4
COc1ccccc1C(C)(C)N(C)Cc1cncn1CC1(O)C(C)OC(OC2C(C)C(=O)OC3CN(C3)C(C)C(O)C(C)CC(C)(OC)C(OC3OC(C)CC(N(C)C)C3O)C2C)CC1(C)OC (centres unmarked) [Example 204]	16

# return MIC values (minimum inhibitory concentration) of COc1cccc2c1CCCC2N(C)CCN(C)CC1(O)C(C)OC(OC2C(C)C(=O)OC3CN(C3)C(C)C(O)C(C)CC(C)(OC)C(OC3OC(C)CC(N(C)C)C3O)C2C)CC1(C)OC (centres unmarked) [Example 133] (system: H. influenzae Rd)
16
